Assignment: determine reported CYP3A4 % inhibition for the given molecules.
Target: CYP3A4 (Homo sapiens)
Sequence (P08684 whole entry, species assumed): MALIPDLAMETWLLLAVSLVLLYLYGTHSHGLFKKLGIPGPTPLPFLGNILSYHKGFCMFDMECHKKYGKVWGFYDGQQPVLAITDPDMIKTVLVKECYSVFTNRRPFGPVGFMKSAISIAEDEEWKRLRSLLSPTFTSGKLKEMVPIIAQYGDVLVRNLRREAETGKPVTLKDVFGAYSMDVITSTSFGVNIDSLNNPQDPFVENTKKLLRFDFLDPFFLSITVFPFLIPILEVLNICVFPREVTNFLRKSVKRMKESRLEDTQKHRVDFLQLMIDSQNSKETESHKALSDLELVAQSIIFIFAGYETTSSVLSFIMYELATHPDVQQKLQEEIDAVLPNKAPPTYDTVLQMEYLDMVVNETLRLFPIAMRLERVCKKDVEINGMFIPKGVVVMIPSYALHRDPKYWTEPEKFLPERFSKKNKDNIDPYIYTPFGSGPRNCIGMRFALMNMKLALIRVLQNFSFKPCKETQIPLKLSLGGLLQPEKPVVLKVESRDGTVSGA
Assay: CYP3A4 % inhibition
Format: in vitro ADME
Give bare numbers, in %.

O=C(NCCCCN1CCCCC1)Nc1ccc(-c2cccs2)cc1 :: 24
COc1ccc(-c2ccc(NC(=O)NCCCCN3CCCCC3)cc2)cc1 :: 32
O=C(NCCCCN1CCCCC1)Nc1ccc(-c2ccc3c(c2)OCO3)cc1 :: 74
O=C(NCCCCN1CCCCC1)Nc1ccc(-c2cccc(F)c2)nc1 :: 26

Go through the items and report each one's CYP3A4 % inhibition.
1. O=C(NCCCCN1CCCCC1)Nc1ccc(-c2cccnc2)cc1
2. COc1ncccc1-c1ccc(NC(=O)NCCCCN2CCCCC2)cn1 [drawing 62]

1: 2; 2: −4

Go through the items and report each one's CYP3A4 % inhibition.
1. Cn1cc(-c2ccc(NC(=O)NCCCCN3CCCCC3)cc2)cn1
2. O=C(NCCCCN1CCCCC1)Nc1ccc(-c2ccc(F)cc2)cc1
3. Cn1cc(-c2ccc(NC(=O)NCCCCN3CCCCC3)cn2)cn1
4. COc1ccc(F)c(-c2ccc(NC(=O)NCCCCN3CCCCC3)cn2)c1
5. O=C(NCCCCN1CCCCC1)Nc1ccc(-c2ccc(F)nc2)nc1
6. O=C(NCCCCN1CCCCC1)Nc1ccc(-c2cccs2)nc1
7. O=C(NCCCCN1CCCCC1)Nc1ccc(-c2ccncc2)nc1
8. O=C(NCCCCN1CCCCC1)Nc1ccc(-c2ccc(F)nc2)cc1

[68, "−13", "−4", 43, "−19", 2, "−1", "−22"]

* * *

Target: alpha3 (ganglionic) nACh receptors (Homo sapiens, UniProt P30926+P32297)
Construct: using the native SH-SY5Y cell line; endogenous in cells
Sequence (P32297 32-505): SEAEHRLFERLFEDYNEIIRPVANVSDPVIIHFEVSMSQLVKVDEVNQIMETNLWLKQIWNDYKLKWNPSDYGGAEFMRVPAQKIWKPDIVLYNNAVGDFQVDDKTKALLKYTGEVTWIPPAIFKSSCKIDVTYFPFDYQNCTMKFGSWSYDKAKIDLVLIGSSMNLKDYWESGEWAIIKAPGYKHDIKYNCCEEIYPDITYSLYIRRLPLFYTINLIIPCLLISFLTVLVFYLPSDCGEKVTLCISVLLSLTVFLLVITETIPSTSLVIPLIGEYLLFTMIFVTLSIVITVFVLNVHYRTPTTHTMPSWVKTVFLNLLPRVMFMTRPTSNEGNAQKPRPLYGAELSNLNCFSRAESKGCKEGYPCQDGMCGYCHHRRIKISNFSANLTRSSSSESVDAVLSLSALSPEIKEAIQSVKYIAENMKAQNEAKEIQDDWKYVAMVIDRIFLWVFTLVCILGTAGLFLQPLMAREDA
Sequence (P30926 22-498): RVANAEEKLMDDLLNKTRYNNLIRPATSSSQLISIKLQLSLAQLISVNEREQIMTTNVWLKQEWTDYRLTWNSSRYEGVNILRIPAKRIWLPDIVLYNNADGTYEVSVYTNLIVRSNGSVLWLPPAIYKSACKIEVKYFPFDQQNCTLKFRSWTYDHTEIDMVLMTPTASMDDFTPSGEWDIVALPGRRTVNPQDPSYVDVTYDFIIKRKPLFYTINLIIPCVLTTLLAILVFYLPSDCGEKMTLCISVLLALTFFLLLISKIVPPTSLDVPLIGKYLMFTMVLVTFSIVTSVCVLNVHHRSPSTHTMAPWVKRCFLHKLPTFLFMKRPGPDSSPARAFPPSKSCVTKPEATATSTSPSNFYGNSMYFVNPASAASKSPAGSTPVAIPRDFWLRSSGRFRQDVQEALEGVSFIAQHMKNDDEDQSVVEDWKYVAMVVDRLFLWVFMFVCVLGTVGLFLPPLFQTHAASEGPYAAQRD
Assay: calcium-monitoring FLIPR selectivity assay using the native SH-SY5Y cell line
Conditions: read-out: Alpha 3 EC50
Assignment: determine reported EC50 for the given compounds.
Answers are plain numbers, in µM.

Worked set:
COc1ccccc1-c1ccc(NC(=O)NCCCCN2CCCCC2)cn1 :: 3.86
COc1ncccc1-c1ccc(NC(=O)NCCCCN2CCCCC2)cn1 [drawing 63] :: 5.67

Now, please, on to the next compound.
Please look up its EC50: COc1ccc(F)c(-c2ccc(NC(=O)NCCCCN3CCCCC3)cc2)c1
2.32

* * *

Target: rat-alpha7-nAChR (Rattus norvegicus)
Construct: expressed in transfected cells
Sequence (Q05941 23-502): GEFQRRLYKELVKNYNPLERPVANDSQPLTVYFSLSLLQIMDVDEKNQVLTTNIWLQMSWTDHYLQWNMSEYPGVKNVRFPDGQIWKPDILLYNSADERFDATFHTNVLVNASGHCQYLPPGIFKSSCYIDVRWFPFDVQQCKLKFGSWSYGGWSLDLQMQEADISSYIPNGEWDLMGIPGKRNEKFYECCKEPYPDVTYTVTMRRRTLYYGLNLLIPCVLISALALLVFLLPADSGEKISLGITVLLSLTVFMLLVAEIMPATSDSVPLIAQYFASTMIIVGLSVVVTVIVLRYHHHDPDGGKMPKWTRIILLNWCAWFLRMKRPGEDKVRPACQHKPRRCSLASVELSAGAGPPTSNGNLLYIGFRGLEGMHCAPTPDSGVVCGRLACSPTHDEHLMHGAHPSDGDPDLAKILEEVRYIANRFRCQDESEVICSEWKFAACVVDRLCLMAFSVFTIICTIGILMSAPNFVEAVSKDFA
Assay: functional FLIPR assay, alpha7 nAChR stably expressed in GH4C1 cells
Format: cell-based
Conditions: assay validation with agonists; alpha7 nAChR in GH4C1 cells; concentration range 0.001 to 30 microM; read-out: EC50
quantity: EC50 (nM)
Numbers only, in nM.

Please look up its EC50: C[N+]1(C)CCN(c2ccccc2)CC1 [DMPP, reference compound]
980

* * *

Biological target: CYP3A4 (Homo sapiens)
Assay: CYP3A4 % inhibition
Assay type: in vitro ADME
quantity: CYP3A4 % inhibition (%)
Numbers only, in %.

O=C(NCCCCN1CCCCC1)Nc1ccc(-c2ccccc2)cc1 :: 51
COc1ccc(F)c(-c2ccc(NC(=O)NCCCCN3CCCCC3)cc2)c1 :: 51
O=C(NCCCCN1CCCCC1)Nc1ccc(-c2ccccc2F)nc1 :: −3

Now, please, on to the next compound.
Please look up its CYP3A4 % inhibition: O=C(NCCCCN1CCCCC1)Nc1ccc(-c2ccc3c(c2)OCO3)nc1
65

These data points were gathered from patent US20100016343A1.
